Provide the reported inhibition at 1 µM of each item.
- experimentalSystem: angiotensin I converting enzyme (ACE) (Oryctolagus cuniculus, UniProt P12822)
- Construct: prepared from the lungs of albino rabbit according to the method described by Wallace et al; from tissue; host or cells: lungs of albino rabbit
- Sequence (P12822 34-1310): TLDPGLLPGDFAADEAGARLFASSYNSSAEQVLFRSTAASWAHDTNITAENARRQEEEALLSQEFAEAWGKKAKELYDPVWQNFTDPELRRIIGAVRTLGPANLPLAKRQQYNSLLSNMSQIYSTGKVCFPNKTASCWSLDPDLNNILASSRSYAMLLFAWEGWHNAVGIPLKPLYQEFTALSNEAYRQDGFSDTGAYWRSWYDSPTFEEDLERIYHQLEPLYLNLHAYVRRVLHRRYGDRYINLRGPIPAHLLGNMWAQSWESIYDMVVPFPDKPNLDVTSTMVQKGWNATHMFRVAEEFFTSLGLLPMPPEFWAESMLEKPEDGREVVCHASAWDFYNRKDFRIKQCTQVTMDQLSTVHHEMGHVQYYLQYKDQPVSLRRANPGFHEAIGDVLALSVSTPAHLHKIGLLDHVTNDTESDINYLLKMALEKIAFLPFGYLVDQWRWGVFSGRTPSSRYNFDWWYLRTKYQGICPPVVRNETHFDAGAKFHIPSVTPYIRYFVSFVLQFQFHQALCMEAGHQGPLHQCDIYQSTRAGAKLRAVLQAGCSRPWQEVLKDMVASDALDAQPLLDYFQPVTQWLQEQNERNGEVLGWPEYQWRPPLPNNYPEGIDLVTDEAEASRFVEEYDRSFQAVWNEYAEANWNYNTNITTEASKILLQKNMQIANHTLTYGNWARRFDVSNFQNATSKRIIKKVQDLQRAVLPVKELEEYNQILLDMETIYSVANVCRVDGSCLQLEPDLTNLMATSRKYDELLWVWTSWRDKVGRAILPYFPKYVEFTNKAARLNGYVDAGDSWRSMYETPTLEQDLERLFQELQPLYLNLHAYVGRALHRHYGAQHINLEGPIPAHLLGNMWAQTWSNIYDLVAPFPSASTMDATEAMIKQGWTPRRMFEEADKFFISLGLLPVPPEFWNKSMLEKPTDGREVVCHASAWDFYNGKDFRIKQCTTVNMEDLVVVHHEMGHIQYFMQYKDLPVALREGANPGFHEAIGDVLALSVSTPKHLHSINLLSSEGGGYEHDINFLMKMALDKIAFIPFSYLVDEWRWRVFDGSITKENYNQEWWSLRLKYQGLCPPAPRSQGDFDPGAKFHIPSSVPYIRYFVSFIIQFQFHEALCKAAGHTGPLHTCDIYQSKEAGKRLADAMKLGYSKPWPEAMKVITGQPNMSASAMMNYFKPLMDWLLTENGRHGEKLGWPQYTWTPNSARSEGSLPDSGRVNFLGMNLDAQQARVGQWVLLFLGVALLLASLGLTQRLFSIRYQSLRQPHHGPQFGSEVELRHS
- procedureText: Inhibition of angiotensin I converting enzyme (HHL substrate, hippuric acid colorimetry, modified Cushman method)
- Format: biochemical, albino rabbit
- testContext: Concentration 1 µM, ACE from rabbit lung, 37°C, one hour, read-out: Inhibitory Activity on ACE (%)
Remember to put the unit after the number in your answer.

CC(=O)SCC(C)C(=O)N1Cc2cc(C)ccc2CC1C(=O)O (centres unmarked) [Example 7] ... 63%
COc1cc2c(cc1O)CN(C(=O)C(C)CSC(C)=O)C(C(=O)O)C2 (centres unmarked) [Example 14] ... 33%
CC(=O)SCC(C)C(=O)N1Cc2ccc(O)cc2CC1C(=O)O (centres unmarked) [Example 19] ... 61%
CC(=O)SCC(C)C(=O)N1Cc2cc(Br)ccc2CC1C(=O)O (centres unmarked) [Example 42] ... 69%

inhibition at 1 µM for CC(C)(C)c1ccc2c(c1)CN(C(=O)C(CS)CS)C(C(=O)O)C2 (centres unmarked) [Example 71] ?
71%

These measurements were taken from patent EP0018104A2.
